Target: T1, soluble recombinant G protein (amino acids 66-292 of the 18537 strain sequence) (RSV strain 18537 (subtype B), UniProt P20896 66-292)
T1 construct: also called G(B); recombinant protein G
T1 sequence: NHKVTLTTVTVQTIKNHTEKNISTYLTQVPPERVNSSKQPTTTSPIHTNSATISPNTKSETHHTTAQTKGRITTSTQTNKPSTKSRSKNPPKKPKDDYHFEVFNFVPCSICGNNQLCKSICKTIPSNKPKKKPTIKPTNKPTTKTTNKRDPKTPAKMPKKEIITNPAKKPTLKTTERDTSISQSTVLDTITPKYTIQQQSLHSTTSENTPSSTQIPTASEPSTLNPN
Assay: SPR (Biacore 3000), Fab over immobilised recombinant antigen;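 also: antigen immobilised on CM5 chip at very low density (about 50 RU), rate constants fitted globally with a 1:1 Langmuir model, Fabs obtained by enzymatic cleavage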
observable: pKd
By convention, pKd is the negative base-10 log of a molar concentration.

INSERT INTO measurements (binder, observable, reported_measurement) VALUES
  ('Fab fragment of antibody from clone 816 (Fab, V domains shown) VH: EVQLLESGGGLVQPGGSLRLSCVASGFTFSTYAMTWVRQAPGKGLEWVSVIRASGDSEIYADSVRGRFTISRDNSKNTVFLQMDSLRVEDTAVYFCANIGQRRYCSGDHCYGHFDYWGQGTLVTVSS VL: DIVMTQSPLSLPVTPGEPASISCRSSQSLLHSDGRYYVDWYLQKPGQSPHLLIYLASNRASGVPDRFTGSGSGTDFTLKISRVEAEDVGVYYCMQGLHTPWTFGQGTKVDIKR', 'pKd', 10.05),
  ('Fab fragment of antibody from clone 853 (Fab, V domains shown, also called Fab clone 853; 853 (G)) VH: EVQLVQSGAEVKKPGQSLKISCKTSGYIFTNYWIGWVRQRPGKGLEWMGVIFPADSDARYSPSFQGQVTISADKSIGTAYLQWSSLKASDTAIYYCARPKYYFDSSGQFSEMYYFDFWGQGTLVTVSS VL: EIVLTQSPGTLSLSPGERATLSCRASQSVSSNYLAWYQQKPGQAPRLLIYGASSRAAGMPDRFSGSGSGTDFTLTISRLEPEDFAVYYCQQYGNSPLTFGGGTEVEIKR', 'pKd', 9.10);

Now for another entry.
Query: Reported pKd for Fab fragment of antibody from clone 796 (Fab, V domains shown, also called Fab clone 796; 796 (G)) VH: QVQLVESGGGVVQPGRSLRLSCAASGFSFSHFGMHWVRQVPGKGLEWVAIISYDGNNVHYADSVKGRFTISRDNSKNTLFLQMNSLRDDDTGVYYCAKDDVATDLAAYYYFDVWGRGTLVTVSS VL: DIVMTQTPLSLSVTPGQPASISCRSSQSLLRSDGKTFLYWYLQKPGQSPQPLMYEVSSRFSGVPDRFSGSGSGADFTLNISRVETEDVGIYYCMQGLKIRRTFGPGTKVEIKR : what is it?
Reply: 9.32
